target: Glutamate receptor ionotropic, AMPA (Rattus norvegicus) (UniProt P19491+P19492+P19493+P19490); assay: concentration of drug giving a 5-fold increase of the magnitude of the current induced by Ionotropic glutamate receptor AMPA (30 uM) and measured in Xenopus Oocytes expressing Rat Cortex AMPA Receptors; format: functional, cell-based
What EC5X was measured for each of the following?
# value in µM; strip the unit string

Quick one: EC5X for CN1CNS(=O)(=O)c2cccnc21 ?
500

# lookup: EC5X of CCN1CNS(=O)(=O)c2cnccc21
195

So what's the measured EC5X for this one? CN1C=NS(=O)(=O)c2ncccc21
645

Fill blank: measured EC5X of the compound CC1Nc2ccncc2S(=O)(=O)N1C (centres undefined) is ____.
381

# get_value(readout='EC5X', item= CCN1CN(C)S(=O)(=O)c2ncccc21 )
96

Which EC5X is listed for O=S1(=O)NCNc2cccnc21 ?
1100

What does the record list as EC5X for CC1NS(=O)(=O)c2cnccc2N1C (centres undefined) ?
450

Find the recorded EC5X belonging to CN1CNS(=O)(=O)c2cnccc21 and report it.
283

Form field: reported EC5X of CC1Nc2cccnc2S(=O)(=O)N1 (centres undefined)
270

* * *

organism: Rattus norvegicus; assay: Effect on duration of the postsynaptic excitatory potentials induced by electric stimulation in rat hippocampal slices; type: functional, Hippocampus
readout kind: D50 (µM)
Express it in µM; write the number only.

Value lookup for D50; key = CC1Nc2cccnc2S(=O)(=O)N1 (stereo unspecified)
100

Please look up its D50: CN1CNS(=O)(=O)c2ncccc21
48

Consider the compound shown here: CN1CNS(=O)(=O)c2cnccc21 What is its recorded D50?
130

Fill in: D50 of CCN1CNS(=O)(=O)c2cnccc21 is ___
137

* * *

Exercise: state measured EC5X for each of the molecules provided.
molecular target: Glutamate receptor ionotropic, AMPA (Rattus norvegicus) (UniProt P19491+P19492+P19493+P19490); experiment: concentration of drug giving a 5-fold increase of the magnitude of the current induced by Ionotropic glutamate receptor AMPA (30 uM) and measured in Xenopus Oocytes expressing Rat Cortex AMPA Receptors; type: functional, cell-based

Please report the recorded EC5X for O=S1(=O)NC(c2ccccc2)Nc2ccncc21 (stereo not drawn) .
> 1000 µM

What measured EC5X goes with CC(C)N1CNS(=O)(=O)c2cnccc21 ?
237 µM

Which EC5X value belongs to CC(C)C1Nc2ccncc2S(=O)(=O)N1 (stereo not drawn) ?
> 1000 µM

Quick check: EC5X of O=S1(=O)NC(C2CCCCC2)Nc2ccncc21 (stereo not drawn) ?
> 1000 µM

Quick one: EC5X of O=S1(=O)NCN(C2CCCCC2)c2ccncc21 ?
> 1000 µM

Any idea what EC5X was measured for CN1CNc2cccnc2S1(=O)=O ?
766 µM

Recorded EC5X of NS(=O)(=O)c1cc2c(cc1Cl)NC(C1CC3C=CC1C3)NS2(=O)=O (stereo not drawn) [CYCLOTHIAZIDE] , please.
9.8 µM

What value of EC5X has been recorded for this entry: CC1=NS(=O)(=O)c2cccnc2N1
> 1000 µM

Entry under review: CCN1CN(CC)S(=O)(=O)c2ncccc21 . Reported EC5X?
220 µM

Item under review: O=S1(=O)NCNc2ncccc21 . Reported EC5X?
> 1000 µM

Entry COc1ccc(C(=O)N2CCCC2=O)cc1 has what EC5X?
> 3000 µM

Requested field: EC5X. Item: CCC1=NS(=O)(=O)c2cnccc2N1
> 1000 µM

Dear colleague, I am looking for the recorded EC5X of the following molecule: CCC1Nc2ccncc2S(=O)(=O)N1 (stereo not drawn)
> 1000 µM

* * *

For each record, write down the corresponding logD.
experiment: Partition coefficient was measured in between 1-octanol and aqueous buffer solution of pH 7.4; format: physicochemical; conditions: 1-octanol/aqueous buffer

Item CC1Nc2cccnc2S(=O)(=O)N1 (stereo unspecified) has what recorded logD?
-0.2

Tell me the measured logD of CC1Nc2ccncc2S(=O)(=O)N1 (stereo unspecified) , please.
0.13

Any idea what its logD is? The compound is CC1=NS(=O)(=O)c2cccnc2N1
-0.25

Please look up its logD: CC1=NS(=O)(=O)c2ncccc2N1
-0.91

What value of logD has been recorded for this entry: CC1Nc2ncccc2S(=O)(=O)N1 (stereo unspecified)
0.35

Given the entry CC1=NS(=O)(=O)c2cnccc2N1 , report its measured logD.
-0.41

* * *

biological target: Glutamate receptor ionotropic, AMPA (Rattus norvegicus) (UniProt P19491+P19492+P19493+P19490); test: Concentration of drug giving a 2-fold increase of the magnitude of the current induced by Ionotropic glutamate receptor AMPA (30 uM) and measured in Xenopus Oocytes expressing Rat Cortex AMPA Receptors; type: functional, cell-based
Hi there, I'd appreciate the recorded EC2x for every entry that follows.

Which EC2x is reported for this compound? CC1Nc2ncccc2S(=O)(=O)N1 (stereo not drawn)
> 1000 µM

Sample CC1Nc2cccnc2S(=O)(=O)N1 (stereo not drawn) — what was its EC2x?
114 µM

Which value of EC2x has been reported for O=S1(=O)c2cnccc2NCN1C1CCCCC1 in the records?
> 100 µM

# get_value(readout='EC2x', item= CCC1Nc2ccncc2S(=O)(=O)N1 (stereo not drawn) )
> 1000 µM

If you can, please state the reported EC2x value of CCC(CC)C1Nc2ccncc2S(=O)(=O)N1 (stereo not drawn) .
> 1000 µM

Any idea what its EC2x is? The compound is CCCCCN1CNc2ccncc2S1(=O)=O
> 100 µM

Need EC2x, item CN1C=NS(=O)(=O)c2ncccc21
265 µM

Which EC2x value belongs to CN1CN(C)S(=O)(=O)c2ncccc21 ?
39 µM

Can you look up the measured EC2x of O=S1(=O)NC(C2CCCCC2)Nc2ccncc21 (stereo not drawn) for me?
> 1000 µM

Param item = O=S1(=O)NCN(CC(F)(F)F)c2ccncc21 ; retrieve measured EC2x.
110 µM

Entry COc1ccc(C(=O)N2CCCC2=O)cc1 : reported EC2x = ?
1440 µM

Which EC2x reading was recorded for the compound CN1CNc2ccncc2S1(=O)=O ?
> 1000 µM

EC2x lookup needed for CC(C)N1CNS(=O)(=O)c2cnccc21 , thanks.
94 µM

Could you tell me which EC2x is on file for O=S1(=O)c2cnccc2NCN1c1ccccc1 ?
> 100 µM

Entry CC(C)N1CN(C)S(=O)(=O)c2cnccc21 : reported EC2x = ?
> 1000 µM

# EC2x lookup, item CN1CNS(=O)(=O)c2cccnc21
200 µM

EC2x lookup needed for CN1CNS(=O)(=O)c2ncccc21 , thanks.
21 µM

GET /values?readout=EC2x&item= NC1=NS(=O)(=O)c2cnccc2N1
> 1000 µM

So what does the record say about EC2x for CCN1C=NS(=O)(=O)c2ncccc21 ?
96 µM

Name the recorded EC2x for O=S1(=O)N=CNc2ncccc21 .
> 1000 µM

What EC2x value was documented for this compound, CCCC1Nc2ccncc2S(=O)(=O)N1 (stereo not drawn) ?
> 1000 µM

# input compound: CCCNC1=NS(=O)(=O)c2cnccc2N1 ; wanted: its EC2x
> 1000 µM

Look up EC2x for this compound: CCCN1CN(C)c2ccncc2S1(=O)=O
> 1000 µM

Can you share its EC2x? I mean this compound: O=S1(=O)N=C(C(F)(F)F)Nc2ccncc21
> 1000 µM

Entry CCC(C)NC1=NS(=O)(=O)c2cnccc2N1 (stereo not drawn) has what EC2x?
> 1000 µM

Consider the compound shown here: O=S1(=O)NCNc2cccnc21 What is its recorded EC2x?
300 µM

Would you mind telling me what EC2x value was observed for CN1CN(C)S(=O)(=O)c2cnccc21 ?
300 µM

Give its EC2x value. Item: O=S1(=O)N=CNc2cccnc21
> 1000 µM

* * *

experiment: Ratio between the D50 value and the A50 value; assay type: functional
Kindly state Ratio for each of the entries shown.
// return just the number, without any unit appended

Fill blank: measured Ratio of the compound CCN1CNS(=O)(=O)c2cnccc21 is ____.
0.6

What does the record list as Ratio for CN1CNS(=O)(=O)c2cnccc21 ?
0.6

Which Ratio value is on record for CN1CNS(=O)(=O)c2ncccc21 ?
0.6

Fill in: Ratio of CC1Nc2cccnc2S(=O)(=O)N1 (centres undefined) is ___
0.65

* * *

target: Glutamate receptor ionotropic, AMPA (Rattus norvegicus) (UniProt P19491+P19492+P19493+P19490); test: concentration of drug giving a 5-fold increase of the magnitude of the current induced by Ionotropic glutamate receptor AMPA (30 uM) and measured in Xenopus Oocytes expressing Rat Cortex AMPA Receptors; format: functional, cell-based
readout kind: EC5X

Find the recorded EC5X belonging to CC(C)C(C)NC1=NS(=O)(=O)c2cnccc2N1 (stereo not given) and report it.
> 1000 µM

Dear colleague, I am looking for the recorded EC5X of the following compound: CCC1NS(=O)(=O)c2cnccc2N1C (stereo not given)
> 1000 µM

Bench note: what EC5X did CCCCCN1CNc2ccncc2S1(=O)=O show?
> 100 µM

Which EC5X is reported for this compound? CN1CN(C)S(=O)(=O)c2cnccc21
> 1000 µM

Dear colleague, I am looking for the recorded EC5X of the following compound: CCC(C)NC1=NS(=O)(=O)c2cnccc2N1 (stereo not given)
> 1000 µM

Cited source: ChEMBL document CHEMBL1131581
